- Target Or Test System: Melanocortin receptor 5 (Homo sapiens)
- Sequence (P33032 whole entry): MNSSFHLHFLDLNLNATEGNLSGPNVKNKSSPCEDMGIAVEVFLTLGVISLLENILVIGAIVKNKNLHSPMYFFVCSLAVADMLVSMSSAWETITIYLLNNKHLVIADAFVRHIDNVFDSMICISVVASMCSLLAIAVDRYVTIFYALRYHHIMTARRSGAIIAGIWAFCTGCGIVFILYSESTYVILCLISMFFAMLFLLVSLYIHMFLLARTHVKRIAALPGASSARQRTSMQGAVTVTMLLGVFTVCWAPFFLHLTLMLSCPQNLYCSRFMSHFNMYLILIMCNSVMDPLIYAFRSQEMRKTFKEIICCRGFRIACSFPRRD
- Protocol Text: Antagonist activity at human MC5 receptor expressed in HEK293 cells assessed as inhibition of ACTH-induced cAMP accumulation measured after 70 mins incubation by fluorescence analysis
- Format: functional, cell-based
Result Type: pEC50
Please treat pEC50 as minus the base-10 logarithm of the molar concentration.

Some compounds with known pEC50 results, for comparison:
| Compound | Target Or Test System | Experimental Value |
| --- | --- | --- |
| COc1ccc(C(CN(C)C)NC(=O)COc2ccc(-c3cccc4c3OCC4)cc2Cl)cc1 (configuration not stated) | Melanocortin receptor 5 (Homo sapiens) | 4.89 |
| COCCNC(=O)C(C1CC2(C1)CC21CCC1)N(C(=O)c1cn(C)cn1)C1CCCN(c2cccc(C)c2)C1 (configuration not stated) | Melanocortin receptor 5 (Homo sapiens) | 4.14 |

Then there is this compound:
Record CC1CC(N2CCCC2)CN1C(=O)c1cc(O)cc(-c2cc(Cl)ccc2F)c1 (configuration not stated) . Reported pEC50: 3.81

---

- Target Or Test System: UniProt:P32245
- Sequence (P32245 whole entry): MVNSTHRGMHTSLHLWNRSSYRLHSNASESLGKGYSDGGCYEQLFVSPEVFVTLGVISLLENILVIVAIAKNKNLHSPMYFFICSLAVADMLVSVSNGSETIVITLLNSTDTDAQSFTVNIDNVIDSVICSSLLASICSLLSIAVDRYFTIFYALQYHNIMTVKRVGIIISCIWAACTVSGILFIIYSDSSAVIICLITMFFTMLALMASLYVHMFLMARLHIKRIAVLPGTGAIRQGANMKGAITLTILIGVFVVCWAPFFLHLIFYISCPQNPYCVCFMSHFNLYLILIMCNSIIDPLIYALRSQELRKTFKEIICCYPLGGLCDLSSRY
- Protocol Text: Antagonist activity at human MC4 receptor expressed in HEK293 cells assessed as inhibition of ACTH-induced cAMP accumulation measured after 70 mins incubation by fluorescence analysis
Result Type: EC50 (µM)
Please give a number only; it is taken to be in µM.

Some compounds with known EC50 results, for comparison:
| Compound | Unit Text | EC50 |
| --- | --- | --- |
| O=C(NCC(F)F)C(C1CC2(C1)CC21CCC1)N(C(=O)c1cc2c(cn1)CCCC2)[C@H]1C[C@@H](N2CCCC2)C1 (stereo not given in full) | µM | 36 |
| O=C1NCCOc2ccc(CNCC3(c4ccc(C=C5CCSCC5)s4)CCC3)cc21 | µM | 32 |
| CC1CC(N2CCCC2)CN1C(=O)c1cc(O)cc(-c2cc(Cl)ccc2F)c1 (stereo not given) | µM | 425 |
| COc1ccc(C(CN(C)C)NC(=O)COc2ccc(-c3cccc4c3OCC4)cc2Cl)cc1 (stereo not given) | µM | 31 |

Record COCCNC(=O)C(C1CC2(C1)CC21CCC1)N(C(=O)c1cn(C)cn1)C1CCCN(c2cccc(C)c2)C1 (stereo not given) . Reported EC50: 33

---

- Target Or Test System: Melanocortin receptor 3 (Homo sapiens)
- Sequence (P41968 whole entry): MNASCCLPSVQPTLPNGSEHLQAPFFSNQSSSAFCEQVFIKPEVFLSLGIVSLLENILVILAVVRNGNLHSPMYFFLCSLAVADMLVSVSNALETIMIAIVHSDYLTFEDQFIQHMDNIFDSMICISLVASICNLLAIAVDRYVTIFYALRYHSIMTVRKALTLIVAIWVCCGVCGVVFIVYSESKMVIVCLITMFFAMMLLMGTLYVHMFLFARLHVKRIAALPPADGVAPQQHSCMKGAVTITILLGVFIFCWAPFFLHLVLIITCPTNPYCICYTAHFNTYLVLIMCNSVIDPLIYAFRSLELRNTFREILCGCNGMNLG
- Protocol Text: Antagonist activity at human MC3 receptor expressed in HEK293 cells assessed as inhibition of ACTH-induced cAMP accumulation measured after 70 mins incubation by fluorescence analysis
// reported EC50 per item
Please format your answer as a value with the unit trailing.

Some compounds with known EC50 results, for comparison:
| Compound | Experimental Value |
| --- | --- |
| COc1cc(C)c(-c2c(C)c(C)c(C(=O)NCC3CCCN3CCCO)c(C)c2C)cc1C (stereo not drawn) | 156 µM |
| COc1ccc(C(CN(C)C)NC(=O)COc2ccc(-c3cccc4c3OCC4)cc2Cl)cc1 (stereo not drawn) | 37 µM |
| CCCN1CC(NC(=O)[C@@H]2C[C@H]2c2cccc(-c3cc(Cl)ccc3OC)c2Cl)C1 | 19 µM |
| O=C(NCC(F)F)C(C1CC2(C1)CC21CCC1)N(C(=O)c1cc2c(cn1)CCCC2)[C@H]1C[C@@H](N2CCCC2)C1 (stereo partly drawn) | 50 µM |

Record CC1CC(N2CCCC2)CN1C(=O)c1cc(O)cc(-c2cc(Cl)ccc2F)c1 (stereo not drawn) . Reported EC50: 94 µM

Record COCCNC(=O)C(C1CC2(C1)CC21CCC1)N(C(=O)c1cn(C)cn1)C1CCCN(c2cccc(C)c2)C1 (stereo not drawn) . Reported EC50: 32 µM

Record CCc1ccc(-c2cc(CNC3CCN(c4ccccc4C(N)=O)C3)c(OC)cc2F)s1 (stereo not drawn) . Reported EC50: 33 µM

Record "O=C1NCCOc2ccc(CNCC3(c4ccc(C=C5CCSCC5)s4)CCC3)cc21" . Reported EC50: 33 µM

Value source: ChEMBL document CHEMBL6087395
